Record form. Attribute: Ka. Fill in for each entry.
test system: DNA; assay: Binding affinity to calf thymus DNA at 20 uM after 1 hr by fluorimetric analysis; assay type: nucleic-acid assay; details: Bos taurus; 10 uM; in the assay text read “at 10 uM” for “at 20 uM”
One number for each entry, in ×10⁵ /M.

# example entries with known answers
CN(C)CCN1C(=O)c2cccc3c2c(cc2c4ccccc4oc32)C1=O: 2.89
CN(C)CCn1c(=O)c2ccc3oc4ccccc4c4ccc(c1=O)c2c34: 1.45

For the next question, use this compound.
stdin: Would you mind telling me what Ka value was observed for CN(C)CCN1C(=O)c2cccc3c2c(cc2c4ccccc4sc32)C1=O ?
stdout: 1.1

###

Would you kindly list IC50 for each of these molecules?
system: A549; assay: Cytotoxicity against human A549 cells by SRB assay; type: functional, cell-based
One number for each entry, in nM.

Reference set (3 entries):
COc1ccc(-c2nc3cc4c5c(cccc5c3s2)C(=O)N(CCN(C)C)C4=O)cc1: 16
CN(C)CCN1C(=O)c2cccc3c2c(cc2nc(-c4ccc(Cl)cc4)oc23)C1=O: 72400
COc1ccccc1-c1nc2cc3c4c(cccc4c2o1)C(=O)N(CCN(C)C)C3=O: 890

stdin: Using the record for CN(C)CCN1C(=O)c2cccc3c2c(cc2nc(-c4ccccc4)oc23)C1=O , report its IC50.
stdout: 530

The values you see were collected from ChEMBL document CHEMBL2331412.
